Biological target: GST-Rok (full length) (Bacillus subtilis subsp. subtilis str. …, UniProt O34857 1-191)
Sequence: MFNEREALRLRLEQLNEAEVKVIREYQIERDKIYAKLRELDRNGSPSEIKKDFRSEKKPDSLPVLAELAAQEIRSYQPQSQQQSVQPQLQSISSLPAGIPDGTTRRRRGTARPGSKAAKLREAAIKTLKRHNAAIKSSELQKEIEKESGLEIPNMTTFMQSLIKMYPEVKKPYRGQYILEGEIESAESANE
Assay: protein binding microarray; Rok is a gene silencer of Bacillus subtilis; high values mean tight binding
Details: protein: recombinant; tags: GST (pTH5325, pDEST15-Magic modified); dsDNA, one strand shown
In all, about 33,000 sequences were measured (“e-score”: median about -0.037, highest 2% from about 0.34 on). The entries come from a sample that favours the highest values as a whole.
Please mark YES if the recorded binding signal is equal to or greater than 0.3 E-score, and NO if it falls below.

| sequenceChain | classification |
| --- | --- |
| AAAATTAC | NO |
| ACCTAATA | NO |
| AAGTACTA | YES |
| AACTAATA | YES |
| TGCTGCAA | NO |
| AGTGGCAG | NO |
| CACTATCA | NO |
| CCTCAGTA | NO |
| ATTTTACC | YES |
| TACTAATA | YES |
| CACTAATA | NO |
| ATCTATCA | YES |
| GAGTACGA | NO |
| TAGTACTA | YES |
| AACTATAA | YES |
| TACCGGTA | YES |
| AACTAATC | NO |
| CACTAATG | NO |
| AACCGGTA | NO |
| AAGTCGCC | NO |
| AATATATG | YES |
| TAATTTAA | YES |
| CATACCGC | NO |
| ATTTAGTA | YES |
| CAATTTAA | NO |
| AAGATATA | YES |
| AAAAGGAG | NO |
| GTGACGGA | NO |
| TACTATCA | YES |
| GGCTGTAC | NO |
| GAATTTAA | NO |
| GAAGAAAA | NO |
| GACTATCA | NO |
| ATTTAGTG | NO |
| AATTTTAG | NO |
| CAAATTAC | YES |
| CTTGTTTC | NO |
| ATTTTTAC | YES |
| AACTATCA | YES |
| ATTTTACA | YES |
| ATATAGGA | NO |
| AACTAATT | YES |
| CTACAGAC | NO |
| CACCGGTA | NO |
| CGTATATC | NO |
| AATATATA | YES |

These measurements were taken from paper PMC6212790.
